- protocolNotes: qHTS assay to identify small molecule antagonists of the constitutive androstane receptor (CAR) signaling pathway - cell viability counter screen (AID 1224837); also: nearly all actives have a fitted effect of over 45% in size
- runConditions: HepG2-CYP2B6-hCAR viability, CellTiter-Fluor, 23 h, co-treated with 50 nM CITCO; series mostly up to 92.4 µM
Records with an inconclusive call do not appear. Activity calls are given as the source filed them. Calls follow the shape of the dose curve; as a rule, active = well fitted cell-killing curve with a large enough effect in the repeat runs; inconclusive = weak or mixed curves, or effect the other way; inactive = flat fitted curve, though single readings scatter.
Tick one outcome: yes for active, no for inactive

Field: outcome | Entry: C=CC(=O)OCCOC(=O)C=C no

Field: outcome | Entry: CC(C)(C)c1ccc(C(O)CCCN2CCC(C(O)(c3ccccc3)c3ccccc3)CC2)cc1 (stereo not given) yes

Field: outcome | Entry: CC(C)CCOC(=O)/C=C/c1ccccc1 no

Field: outcome | Entry: Clc1ccnc(Cl)n1 no

Field: outcome | Entry: O=c1oc2cc(O)ccc2c2oc3cc(O)ccc3c12 no

Field: outcome | Entry: CCCCCCCCCCCC(=O)OCC(C)OC(=O)CCCCC(=O)O (stereo not given) no

Field: outcome | Entry: O=C(O)Cc1ccc2c(c1)C(=O)c1ccccc1CO2 no

Field: outcome | Entry: Cc1cc(C(C)(C)C)c(O)c(C)c1Cn1c(=O)n(Cc2c(C)cc(C(C)(C)C)c(O)c2C)c(=O)n(Cc2c(C)cc(C(C)(C)C)c(O)c2C)c1=O no

Field: outcome | Entry: COc1cc(C)ccc1O no

Field: outcome | Entry: Cc1nc(-c2ccc(Cl)cc2)oc1COC(C)(C)C(=O)O no

Field: outcome | Entry: COC(C)=O no

Field: outcome | Entry: CCCC1CCC(=O)CC1 no

Field: outcome | Entry: CCCNCCC no

Field: outcome | Entry: CC1=Nc2ccccc2C1(C)C no

Field: outcome | Entry: Nc1cc(Cl)c(O)c(Cl)c1 no

* * *

- system: Glucocorticoid receptor (Homo sapiens)
- protocolNotes: qHTS assay to identify small molecule antagonists of the glucocorticoid receptor (GR) signaling pathway (AID 720692)
- runConditions: GR-bla HeLa, beta-lactamase FRET ratio, dexamethasone-stimulated, 18 h; series mostly up to 58.5 µM
Records with an inconclusive call do not appear. The source made the active and inactive calls. Calls follow the shape of the dose curve; as a rule, active = well fitted inhibition curve with a large enough effect in the signal ratio in the repeat runs (not every such curve was filed as active); inconclusive = weak or mixed curves, or effect the other way; inactive = no such curve, though single readings can be large or run the other way; the % refers to the signal ratio.
Tick one outcome: active, inactive

Field: outcome | Entry: C/C=C/C=C/COC(=O)C(C)C active

Field: outcome | Entry: CC(C)Cn1cnc2c(N)nc3ccccc3c21 inactive

Field: outcome | Entry: Cc1ccc(C)cc1 inactive

Field: outcome | Entry: COCCOc1cc2cc(C(=O)NC3CCN(C(C)C)CC3)n(CC(=O)Nc3ccc(Cl)cn3)c2cn1 inactive

Field: outcome | Entry: CCCCCCOC(=O)C(C)CC (configuration not stated) inactive

Field: outcome | Entry: CCCCCCCC inactive

Field: outcome | Entry: Nc1nc(N)nc(-c2cc(Cl)ccc2Cl)n1 inactive

Field: outcome | Entry: O=C(O)c1cc(=O)c2ccccc2o1 inactive

Field: outcome | Entry: Cc1c(F)c(N2CCNC(C)C2)cc2c1c(=O)c(C(=O)O)cn2C1CC1 (configuration not stated) inactive

Field: outcome | Entry: CC(C)(C)c1ccc(C(O)CCCN2CCC(C(O)(c3ccccc3)c3ccccc3)CC2)cc1 (configuration not stated) inactive

Field: outcome | Entry: O=C(O)c1cccc(C(F)(F)F)c1 inactive

Field: outcome | Entry: Cc1cc(-n2nc3ccc(Cl)cc3n2)c(O)c(C(C)(C)C)c1 inactive

Field: outcome | Entry: OC[C@H]1O[C@H](O[C@H]2O[C@H](CO)[C@@H](O)[C@H](O)[C@H]2O)[C@H](O)[C@@H](O)[C@@H]1O inactive

Field: outcome | Entry: CC(=O)c1ccc(C(C)=O)cc1 inactive

Field: outcome | Entry: CC(C)(c1cc(Br)c(OCC(Br)CBr)c(Br)c1)c1cc(Br)c(OCC(Br)CBr)c(Br)c1 (configuration not stated) inactive

Field: outcome | Entry: COC(=O)c1ccccc1C inactive

Field: outcome | Entry: CCCCOC(=O)CO inactive

Field: outcome | Entry: O=C1NC(=O)[C@@H]2CC=CC[C@H]12 inactive

Field: outcome | Entry: CCCC(=O)OC(C)(C)Cc1ccccc1 inactive

Field: outcome | Entry: FC(F)(F)c1cccc(Cl)c1 inactive

Field: outcome | Entry: COc1ccc2cc1Oc1ccc(cc1)C[C@H]1c3c(cc4c(c3Oc3cc5c(cc3OC)CCN(C)[C@@H]5C2)OCO4)CCN1C inactive

Field: outcome | Entry: Cc1cc(C(C)(C)C)cc(C)c1CC1=NCCN1 inactive

Field: outcome | Entry: OCC(F)(F)F inactive

Field: outcome | Entry: CCCNCCC inactive

Field: outcome | Entry: CN(C)C(=O)COC(=O)Cc1ccc(OC(=O)c2ccc(N=C(N)N)cc2)cc1 inactive

Field: outcome | Entry: C=CCCC(=O)/C=C/C1C(C)=CCCC1(C)C (configuration not stated) inactive

Field: outcome | Entry: CCCCOC(=O)CC inactive

* * *

- protocolNotes: qHTS assay to identify small molecule antagonists of the retinoic acid receptor (RAR) signaling pathway (AID 1159552; also: nearly all actives have a fitted effect of over 50% in size)
- runConditions: C3RL4 RARE luciferase reporter, retinol-stimulated, 6 h; series mostly up to 92.4 µM
Records with an inconclusive call do not appear. The source made the active and inactive calls. Calls follow the shape of the dose curve; as a rule, active = well fitted inhibition curve with a large enough effect in the repeat runs; inconclusive = weak or mixed curves, or effect the other way; inactive = no such curve, though single readings can be large or run the other way.
Tick one outcome: active, inactive

Field: outcome | Entry: Nc1nc2c(ncn2COCCO)c(=O)[nH]1 inactive

Field: outcome | Entry: CCCCC(CC)COC(=O)CCCCC(=O)OCc1ccccc1 (centres undefined) inactive

Field: outcome | Entry: CCCc1ccc(OCC(=O)N2CCN(C(=O)COc3ccc(CCC)cc3OC)CC2)c(OC)c1 inactive

Field: outcome | Entry: COc1ccc(NC(=O)CC(C)=O)cc1 inactive

Field: outcome | Entry: OCC(F)(F)F inactive

Field: outcome | Entry: CCCCCC(C)OC(=O)COc1ccc(Cl)c2cccnc12 (centres undefined) inactive

Field: outcome | Entry: O=C1OC2(c3ccc(O)cc3Oc3cc(O)ccc32)c2ccc(N=C=S)cc21 inactive

Field: outcome | Entry: O=C(O)c1ccc2cc(C(=O)O)ccc2c1 inactive

Field: outcome | Entry: COc1ccc2c(c1)c(CC(=O)OC/C=C(\C)CC/C=C(\C)CCC=C(C)C)c(C)n2C(=O)c1ccc(Cl)cc1 inactive

Field: outcome | Entry: O=S(=O)(O)c1ccc(Nc2nc(Nc3ccc(/C=C/c4ccc(Nc5nc(Nc6ccc(S(=O)(=O)O)cc6)nc(N(CCO)CCO)n5)cc4S(=O)(=O)O)c(S(=O)(=O)O)c3)nc(N(CCO)CCO)n2)cc1 inactive

Field: outcome | Entry: CCCCC(CC)CN1CN(CC(CC)CCCC)CC(C)(N)C1 (centres undefined) inactive

Field: outcome | Entry: C#Cc1ccc(-c2ccccc2F)cc1 inactive

Field: outcome | Entry: CCOC(=O)c1ccc(C2CCC(NC[C@H](O)COc3ccc(O)c(NS(C)(=O)=O)c3)CC2)cc1 (some centres undefined) active

Field: outcome | Entry: O=C(/C=C/c1ccc(O)c(O)c1)O[C@@H](C(=O)O)[C@@H](OC(=O)/C=C/c1ccc(O)c(O)c1)C(=O)O inactive

Field: outcome | Entry: CCO[Si](OCC)(OCC)OCC inactive

Field: outcome | Entry: CCn1c2ccccc2c2cc([N+](=O)[O-])ccc21 inactive

Field: outcome | Entry: ClCCl inactive

Field: outcome | Entry: CCCCOC(=O)CC inactive

Field: outcome | Entry: CCCCCCCCCCCC(=O)OCC(C)OC(=O)CCCCC(=O)O (centres undefined) inactive

Field: outcome | Entry: CCCCCCCCCCC[C@@H](C[C@@H]1OC(=O)[C@H]1CCCCCC)OC(=O)[C@H](CC(C)C)NC=O inactive

Field: outcome | Entry: Cc1ccc(C)cc1 inactive

Field: outcome | Entry: C=CCn1c(=O)n(CC=C)c(=O)n(CC=C)c1=O inactive

Field: outcome | Entry: COC(=O)c1ccccc1OC inactive

Field: outcome | Entry: CCN1C(=O)c2ccccc2C1Nc1ccc(OCCN2CCCCC2)cc1 (centres undefined) inactive

* * *

- protocolNotes: A CellTox Green Cytotoxicity Assay to monitor cytotoxicity in HepG2 cells - 16 hour (AID 1224876); also: nearly all actives have a fitted effect of over 45% in size
- runConditions: CellTox Green fluorescence; series mostly up to 76.8 µM
Inconclusive results are not listed. Activity calls are given as the source filed them. Calls follow the shape of the dose curve; as a rule, active = well fitted activation curve with a large enough effect in the repeat runs; inconclusive = weak or mixed curves; inactive = flat fitted curve, though single readings scatter.
Tick one outcome: label 1 = active, label 0 = inactive

Field: outcome | Entry: CCOC(=O)Cn1cccc1-c1nc(-c2ccc(OC)cc2)c(-c2ccc(OC)cc2)s1 label 0

Field: outcome | Entry: O=C1c2ccccc2C(=O)N1SC1CCCCC1 label 1

Field: outcome | Entry: CCCCCCC1CCCC(=O)O1 (centres undefined) label 0

Field: outcome | Entry: COc1cccc2c1C(=O)c1c(O)c3c(c(O)c1C2=O)C[C@@](O)(C(C)=O)C[C@@H]3O[C@H]1C[C@H](N)[C@H](O)[C@H](C)O1 label 0

Field: outcome | Entry: O=C(/C=C/c1ccccc1)OC/C=C/c1ccccc1 label 0

Field: outcome | Entry: O=S(=O)(O)c1ccc(Nc2nc(Nc3ccc(/C=C/c4ccc(Nc5nc(Nc6ccc(S(=O)(=O)O)cc6)nc(N(CCO)CCO)n5)cc4S(=O)(=O)O)c(S(=O)(=O)O)c3)nc(N(CCO)CCO)n2)cc1 label 0

Field: outcome | Entry: O=C(O)c1cc(-c2ccc(F)cc2F)ccc1O label 0

Field: outcome | Entry: OCC(F)(F)F label 0

Field: outcome | Entry: CCN(CC)C(=O)c1cc(S(=O)(=O)Cc2ccccc2)c(N2CCC(c3ccccc3)CC2)cc1N(CC)CCN(C)C label 1

Field: outcome | Entry: CC(=O)Oc1cc2c(s1)CCN(C(C(=O)C1CC1)c1ccccc1F)C2 (centres undefined) label 0

Field: outcome | Entry: CCc1ccc(Br)cc1 label 0

Field: outcome | Entry: Cc1nc(-c2ccc(Cl)cc2)oc1COC(C)(C)C(=O)O label 0

Field: outcome | Entry: c1ccsc1 label 0

Field: outcome | Entry: COc1cc(C)ccc1O label 0

Field: outcome | Entry: Cc1c(F)c(N2CCNC(C)C2)cc2c1c(=O)c(C(=O)O)cn2C1CC1 (centres undefined) label 0

Field: outcome | Entry: CCCCCc1ccc(Cl)cc1 label 0

Field: outcome | Entry: CCC(C)(CCC(C)C)C(=O)[O][Sn]([CH3])([CH3])[O]C(=O)C(C)(CC)CCC(C)C (centres undefined) label 0

Field: outcome | Entry: CCCC(=O)OCCc1ccccc1 label 1

Field: outcome | Entry: C=C(C)c1cccc(C(=C)C)c1 label 0

Field: outcome | Entry: COc1cc(/C=C/c2ccccc2)oc(=O)c1 label 0

Field: outcome | Entry: CC(C)(C)c1csc(-c2cc3cc(OCc4ccccc4CC(=O)O)ccc3o2)n1 label 1

Field: outcome | Entry: CC(CO)Oc1ccccc1 (centres undefined) label 0

Field: outcome | Entry: CCN(CCN)c1cccc(C)c1 label 0

Field: outcome | Entry: Cc1cc(C)c(/C=C2\C(=O)Nc3ccccc32)[nH]1 label 1
